# System: bromegrass, downy (downy bromegrass, Bromus tectorum)
# assay.comment: Test D controlled growth environment herbicide test, pre- and postemergence
# Format: in vivo
# assay.conditions: postemergence, 62 g ai/ha; scale 0 to 100, 0 no effect, 100 complete control
attribute.measured: Plant response rating, Bromegrass, Downy
Answers are plain numbers.

Past entries and their recorded results:
[[record]]
molecule_smiles = "C#CCOC(=O)Oc1c(C)nn(C)c(=O)c1-c1c(C)sc2ccc(C)cc12"
target_or_test_system = "bromegrass, downy (downy bromegrass, Bromus tectorum)"
attribute_measured = "Plant response rating, Bromegrass, Downy"
numeric_readout = 65

[[record]]
molecule_smiles = "CCOC(=O)Oc1c(C)nn(C)c(=O)c1-c1c(C)sc2ccc(C)cc12"
target_or_test_system = "bromegrass, downy (downy bromegrass, Bromus tectorum)"
attribute_measured = "Plant response rating, Bromegrass, Downy"
numeric_readout = 45

[[record]]
molecule_smiles = "COC(=O)Oc1c(C)nn(C)c(=O)c1-c1c(C)sc2c(C)cc(C)cc12"
target_or_test_system = "bromegrass, downy (downy bromegrass, Bromus tectorum)"
attribute_measured = "Plant response rating, Bromegrass, Downy"
numeric_readout = 35


Lab note: next compound to report on.
Fill blank: measured Plant response rating, Bromegrass, Downy of the compound CCC(=O)Oc1c(C)nn(C)c(=O)c1-c1c(C)sc2c(C)cc(C)cc12 is ____.
25
